// values below are reported IC50
Target: Renin (Homo sapiens, UniProt P00797)
Sequence (P00797 whole entry): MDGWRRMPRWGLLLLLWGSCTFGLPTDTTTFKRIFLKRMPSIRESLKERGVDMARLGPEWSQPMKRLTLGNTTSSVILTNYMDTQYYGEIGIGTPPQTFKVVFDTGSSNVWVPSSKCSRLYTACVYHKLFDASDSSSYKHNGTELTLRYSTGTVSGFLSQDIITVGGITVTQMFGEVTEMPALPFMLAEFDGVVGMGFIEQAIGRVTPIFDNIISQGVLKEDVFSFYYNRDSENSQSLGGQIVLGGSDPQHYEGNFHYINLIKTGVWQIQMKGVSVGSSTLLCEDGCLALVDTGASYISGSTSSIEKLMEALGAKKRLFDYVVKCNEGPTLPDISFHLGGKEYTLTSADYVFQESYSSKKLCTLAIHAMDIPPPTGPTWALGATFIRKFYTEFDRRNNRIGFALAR
Experiment: Inhibition of recombinant human renin using Arg-Glu(EDANS)-Ile-His-Pro-Phe-His-Leu-Val-Ile-His-Thr-Lys(DABCYL)-Arg as substrate incubated for 10 mins prior to substrate addition measured after 90 mins by fluorimetric analysis
Observed property: IC50

{"Molecule": "CC(C)C[C@@H](NC(=O)[C@@H]1CNC[C@H](N2CC(=O)N(c3ccccc3Cl)CC2(C)C)C1)C(O)C(C)C (stereo in doubt; 14)", "Value measured": "2.5 nM"}
{"Molecule": "CC(C)C[C@@H](NC(=O)[C@@H]1CNC[C@H](N2CC(=O)N(c3ccccc3Cl)CC2(C)C)C1)C(O)C(C)C (stereo in doubt; 13)", "Value measured": "2.3 nM"}
{"Molecule": "CC[C@H](CC(C)C)NC(=O)[C@@H]1CNC[C@H](N2CC(=O)N(c3ccccc3Cl)CC2(C)C)C1", "Value measured": "2.8 nM"}
{"Molecule": "CCC[C@@H](NC(=O)[C@@H]1CNC[C@H](N2CC(=O)N(c3ccccc3Cl)CC2(C)C)C1)c1ccccc1", "Value measured": "2.5 nM"}
